All figures here come from patent US20230381333A1.

- experimental target: T1, human GIP receptor (human, UniProt P48546 22-466)
- T1 sequence (looked up): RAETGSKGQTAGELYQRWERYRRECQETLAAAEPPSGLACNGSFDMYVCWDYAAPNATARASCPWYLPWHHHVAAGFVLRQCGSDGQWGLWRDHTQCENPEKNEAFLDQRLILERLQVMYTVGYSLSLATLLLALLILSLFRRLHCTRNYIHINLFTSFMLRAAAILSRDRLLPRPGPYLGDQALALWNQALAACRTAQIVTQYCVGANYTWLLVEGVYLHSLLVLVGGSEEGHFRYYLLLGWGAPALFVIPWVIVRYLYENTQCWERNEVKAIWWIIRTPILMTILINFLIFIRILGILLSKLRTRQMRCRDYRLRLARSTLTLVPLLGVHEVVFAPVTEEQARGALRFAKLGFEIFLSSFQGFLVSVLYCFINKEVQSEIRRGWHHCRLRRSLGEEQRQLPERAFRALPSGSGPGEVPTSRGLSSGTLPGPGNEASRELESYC
- assay procedure: cell-based or functional assay
Bridge positions count the residues as written; N and C are the ends. Square brackets hold non-standard residues; d marks the D form. Ends that are not written are not given here. * marks the point of attachment. Acetyl(2-(4-imidazolyl)) = O=C(Cc1c[nH]cn1)*; Aib = CC(C)(N)C(=O)O
Think of 1% as a floor: if In vitro activity compared to native-type peptide (%), vs GIP stands on it or above, it is True; beneath it, False.

Query block: Kindly determine if In vitro activity compared to native-type peptide (%), vs GIP recorded for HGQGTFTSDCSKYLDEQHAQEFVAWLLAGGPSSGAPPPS [triple agonist of SEQ ID NO: 46] is above or exactly 1%.
Result block: False

Query block: Quick check, In vitro activity compared to native-type peptide (%), vs GIP >= 1%? H[Aib]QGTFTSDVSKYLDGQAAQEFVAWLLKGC [triple agonist of SEQ ID NO: 8]
Result block: False

Query block: Quick check: does {Acetyl(2-(4-imidazolyl))}-[Aib]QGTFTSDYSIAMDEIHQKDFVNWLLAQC (bridge 15-19) [triple agonist of SEQ ID NO: 85] have In vitro activity compared to native-type peptide (%), vs GIP greater than or equal to 1%?
Result block: False

Query block: Check the entry {Acetyl(2-(4-imidazolyl))}-[Aib]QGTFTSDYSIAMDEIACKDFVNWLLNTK (bridge 15-19) [triple agonist of SEQ ID NO: 61] : does In vitro activity compared to native-type peptide (%), vs GIP equal or exceed 1%?
Result block: True

Query block: Is In vitro activity compared to native-type peptide (%), vs GIP for H[Aib]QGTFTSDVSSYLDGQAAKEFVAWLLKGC [triple agonist of SEQ ID NO: 6] at or above 1%?
Result block: False

Query block: Could you verify whether the entry H[Aib]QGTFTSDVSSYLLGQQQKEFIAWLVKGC [triple agonist of SEQ ID NO: 4] shows In vitro activity compared to native-type peptide (%), vs GIP of no less than 1%?
Result block: False

Query block: Hi team, for Y[Aib]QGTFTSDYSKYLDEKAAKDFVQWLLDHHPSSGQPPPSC (bridge 16-20) [triple agonist of SEQ ID NO: 77] , is the recorded In vitro activity compared to native-type peptide (%), vs GIP at or above 1%?
Result block: True

Query block: I'd appreciate it if you could say whether {Acetyl(2-(4-imidazolyl))}-[Aib]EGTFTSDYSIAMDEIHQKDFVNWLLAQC (bridge 15-19) [triple agonist of SEQ ID NO: 83] has In vitro activity compared to native-type peptide (%), vs GIP at least equal to 1%.
Result block: False

Query block: Exam item: decide whether the reported In vitro activity compared to native-type peptide (%), vs GIP for H[Aib]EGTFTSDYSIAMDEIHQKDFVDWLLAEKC (bridge 16-20) [triple agonist of SEQ ID NO: 80] is at least 1%.
Result block: False

Query block: Hello, I need to know if {Acetyl(2-(4-imidazolyl))}-[Aib]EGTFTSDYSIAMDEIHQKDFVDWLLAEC (bridge 15-19) [triple agonist of SEQ ID NO: 84] has measured In vitro activity compared to native-type peptide (%), vs GIP not below 1%. Thanks!
Result block: False
